- system.under.test: human TLR7 (Homo sapiens (Human), UniProt Q9NYK1)
- Sequence (Q9NYK1 27-1049): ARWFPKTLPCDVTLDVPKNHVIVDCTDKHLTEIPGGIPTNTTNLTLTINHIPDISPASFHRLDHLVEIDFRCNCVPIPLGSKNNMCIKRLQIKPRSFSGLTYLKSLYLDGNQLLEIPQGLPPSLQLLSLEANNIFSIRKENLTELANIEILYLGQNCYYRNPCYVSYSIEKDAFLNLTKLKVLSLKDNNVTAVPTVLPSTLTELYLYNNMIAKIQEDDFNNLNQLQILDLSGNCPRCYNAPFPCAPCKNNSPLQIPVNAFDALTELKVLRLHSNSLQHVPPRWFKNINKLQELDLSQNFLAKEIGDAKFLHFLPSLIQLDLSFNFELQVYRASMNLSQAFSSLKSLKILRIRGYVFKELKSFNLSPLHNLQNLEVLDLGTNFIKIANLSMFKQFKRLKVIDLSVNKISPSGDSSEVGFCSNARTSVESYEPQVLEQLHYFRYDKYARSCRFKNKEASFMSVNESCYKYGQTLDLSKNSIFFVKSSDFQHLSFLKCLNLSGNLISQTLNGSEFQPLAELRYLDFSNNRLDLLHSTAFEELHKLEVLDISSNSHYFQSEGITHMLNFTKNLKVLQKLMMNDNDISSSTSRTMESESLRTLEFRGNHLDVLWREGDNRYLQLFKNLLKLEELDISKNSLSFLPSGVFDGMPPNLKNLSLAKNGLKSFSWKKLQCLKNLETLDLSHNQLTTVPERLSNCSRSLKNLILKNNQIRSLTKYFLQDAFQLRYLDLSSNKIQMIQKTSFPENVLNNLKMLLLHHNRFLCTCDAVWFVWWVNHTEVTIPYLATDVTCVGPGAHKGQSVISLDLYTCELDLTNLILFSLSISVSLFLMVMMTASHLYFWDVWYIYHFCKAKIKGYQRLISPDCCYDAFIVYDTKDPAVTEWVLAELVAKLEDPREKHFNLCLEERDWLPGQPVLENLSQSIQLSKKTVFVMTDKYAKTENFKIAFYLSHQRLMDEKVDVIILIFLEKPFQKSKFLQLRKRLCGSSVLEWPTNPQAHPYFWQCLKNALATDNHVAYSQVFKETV
- method: TLR7 inhibition reporter assay (HEK-Blue SEAP)
- condition: HEK-Blue cells overexpressing human TLR7, gardiquimod 7.5 μM stimulation
I'd appreciate it if you marked entries 1 (yes) when IC50 is lower than 3 nM and 0 (no) when it is not.

>>> group_label("Cc1c(-c2[nH]c3cnc(C4CCN(CC(N)=O)CC4)cc3c2C(C)C)cn2ncnc2c1C [Example 23]")
"1 (yes)"
>>> group_label("COc1cc(-c2[nH]c3cnc(N4CCC(NC5CCOC5)CC4)c(F)c3c2C(C)C)cn2ncnc12 (centres unmarked) [Example 103]")
"1 (yes)"
>>> group_label("COc1cc(-c2[nH]c3cnc(N4CCN(C5CCC5)C[C@H]4C)c(F)c3c2C(C)C)cn2ncnc12 [Example 441]")
"0 (no)"
>>> group_label("CNC(=O)CN1CCC(c2cc3c(C(C)C)c(-c4cc(OC)c5ncnn5c4)[nH]c3cn2)CC1 [Example 292]")
"0 (no)"
>>> group_label("COc1cc(-c2[nH]c3cnc(C4CCN(C(C)C)CC4)c(F)c3c2C(C)C)cn2ncnc12 [Example 18]")
"1 (yes)"
>>> group_label("Cc1c(-c2[nH]c3cnc(C4CCC(NCC(F)F)CC4)cc3c2C(C)C)cn2ncnc2c1C (centres unmarked) [Example 336]")
"0 (no)"
>>> group_label("CCN1CC2(C1)CN(c1ncc3[nH]c(-c4cc(OC)c5ncnn5c4)c(C(C)C)c3c1F)C2 [Example 379]")
"0 (no)"
>>> group_label("CCN(CCC#N)C1CCN(c2ncc3[nH]c(-c4cc(C)c5ncnn5c4)c(C(C)C)c3c2C)CC1 [Example 286]")
"1 (yes)"
>>> group_label("COc1cc(-c2[nH]c3cnc(C4CCC(N(C)C5COC5)CC4)c(F)c3c2C(C)C)cn2ncnc12 (centres unmarked) [Example 197]")
"1 (yes)"
>>> group_label("Cc1c(-c2[nH]c3cnc(N4CCN(C5CCOCC5)CC4)c(C)c3c2C(C)C)cn2ncnc2c1C [Example 418]")
"0 (no)"
>>> group_label("COc1cc(-c2[nH]c3cnc(N4CCN(CC(=O)N(C)C)CC4)cc3c2C(C)C)cn2ncnc12 [Example 300]")
"0 (no)"
>>> group_label("Cc1c(-c2[nH]c3cnc(C4CCN(C(=O)CN(C)C)CC4)c(F)c3c2C(C)C)cn2ncnc2c1C [Example 29]")
"0 (no)"
>>> group_label("Cc1c(-c2[nH]c3cnc(C4CCC(NCC5(C)COC5)CC4)c(C)c3c2C(C)C)cn2ncnc2c1C (centres unmarked) [Example 203]")
"0 (no)"
>>> group_label("COc1cc(-c2[nH]c3cnc(C4CCC(NCC(C)(C)C)C4)cc3c2C(C)C)cn2ncnc12 (centres unmarked) [Example 144]")
"0 (no)"
>>> group_label("Cc1cc(-c2[nH]c3cnc(C4CCN(C5COC5)CC4)c(F)c3c2C(C)C)cc(C)n1 [Example 251]")
"0 (no)"
>>> group_label("Cc1c(N2CCC(NC3CCOCC3)CC2)ncc2[nH]c(-c3cc(C)c4ncnn4c3)c(C(C)C)c12 [Example 265]")
"1 (yes)"
>>> group_label("COc1cc(-c2[nH]c3cnc(N4CCC(NC5(C)COC5)CC4)c(F)c3c2C(C)C)cn2ncnc12 [Example 188]")
"1 (yes)"
>>> group_label("Cc1c(-c2[nH]c3cnc(C4CCC(NCC5(C)COC5)CC4)c(F)c3c2C(C)C)cn2ncnc2c1C (centres unmarked) [Example 171]")
"1 (yes)"
>>> group_label("COc1cc(-c2[nH]c3cnc(N4CCN(C5CCN(C(C)C)CC5)CC4)c(F)c3c2C(C)C)cn2ncnc12 [Example 388]")
"1 (yes)"
>>> group_label("Cc1cc(-c2[nH]c3cnc(C4CCC(NC(C)C)CC4)c(F)c3c2C(C)C)cn2ncnc12 (centres unmarked) [Example 198]")
"1 (yes)"
>>> group_label("COc1cc(-c2[nH]c3cnc(N4CCC(N(C)C(C)C)CC4)c(F)c3c2C(C)C)cn2ncnc12 [Example 101]")
"1 (yes)"
>>> group_label("CNC(=O)CN1CCC(c2ncc3[nH]c(-c4cc(C)nc(C)c4)c(C(C)C)c3c2F)CC1 [Example 150]")
"0 (no)"
>>> group_label("Cc1cc(-c2[nH]c3cnc(N4CCC(N5CC6(COC6)C5)CC4)c(F)c3c2C(C)C)cn2ncnc12 [Example 44]")
"1 (yes)"
>>> group_label("COc1cc(-c2[nH]c3cnc(N4CC5(CN(CC6CCOCC6)C5)C4)c(F)c3c2C(C)C)cn2ncnc12 [Example 371]")
"0 (no)"
>>> group_label("COc1cc(-c2[nH]c3cnc(N4CCN(C5CCCOC5)CC4)c(F)c3c2C(C)C)cn2ncnc12 (single isomer, unassigned) [Example 386]")
"0 (no)"
>>> group_label("COc1cc(-c2[nH]c3cnc(C4CCN(CC(N)=O)CC4)c(F)c3c2C(C)C)cn2ncnc12 [Example 19]")
"1 (yes)"
>>> group_label("Cc1c(N2CCC(N3CCN(S(C)(=O)=O)CC3)CC2)ncc2[nH]c(-c3cc(C)c4ncnn4c3)c(C(C)C)c12 [Example 285]")
"1 (yes)"
>>> group_label("Cc1c(-c2[nH]c3cnc(N4CCN(C5CCN(C(C)C)CC5)C[C@H]4C)c(F)c3c2C(C)C)cn2ncnc2c1C [Example 462]")
"1 (yes)"
>>> group_label("COc1cc(-c2[nH]c3cnc(N4CCN(C5CCCOC5)CC4)c(F)c3c2C(C)C)cn2ncnc12 (single isomer, unassigned) [Example 387]")
"0 (no)"

----------
- system.under.test: human TLR9 (Homo sapiens (Human), UniProt Q9NR96)
- Sequence (Q9NR96 26-1032): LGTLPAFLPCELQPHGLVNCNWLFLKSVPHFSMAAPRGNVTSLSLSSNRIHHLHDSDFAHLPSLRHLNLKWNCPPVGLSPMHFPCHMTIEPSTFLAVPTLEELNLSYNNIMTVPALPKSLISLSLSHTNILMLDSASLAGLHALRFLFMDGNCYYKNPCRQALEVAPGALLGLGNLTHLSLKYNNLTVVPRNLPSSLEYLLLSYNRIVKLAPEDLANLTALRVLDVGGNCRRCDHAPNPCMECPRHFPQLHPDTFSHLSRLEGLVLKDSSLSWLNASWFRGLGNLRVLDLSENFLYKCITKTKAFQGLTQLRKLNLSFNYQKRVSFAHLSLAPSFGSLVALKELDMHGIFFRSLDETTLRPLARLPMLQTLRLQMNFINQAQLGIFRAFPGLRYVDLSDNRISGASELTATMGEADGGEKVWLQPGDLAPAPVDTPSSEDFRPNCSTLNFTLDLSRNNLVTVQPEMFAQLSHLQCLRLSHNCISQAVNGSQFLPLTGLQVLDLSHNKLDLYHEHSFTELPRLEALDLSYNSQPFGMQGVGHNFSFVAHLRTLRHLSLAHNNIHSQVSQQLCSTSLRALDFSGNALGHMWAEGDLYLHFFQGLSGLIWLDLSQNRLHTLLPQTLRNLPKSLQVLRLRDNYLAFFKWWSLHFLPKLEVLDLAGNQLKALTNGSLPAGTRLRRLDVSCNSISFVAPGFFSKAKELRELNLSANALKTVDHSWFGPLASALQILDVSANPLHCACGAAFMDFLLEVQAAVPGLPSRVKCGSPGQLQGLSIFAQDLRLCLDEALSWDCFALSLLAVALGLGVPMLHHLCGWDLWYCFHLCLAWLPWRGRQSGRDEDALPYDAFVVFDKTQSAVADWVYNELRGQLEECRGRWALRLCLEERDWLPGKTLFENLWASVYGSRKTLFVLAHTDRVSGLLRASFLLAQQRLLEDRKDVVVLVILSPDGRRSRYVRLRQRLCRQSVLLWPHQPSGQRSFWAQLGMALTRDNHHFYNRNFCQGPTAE
- method: TLR9 inhibition reporter assay (HEK-Blue SEAP);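 note: SEAP driven by IFN-β minimal promoter carrying five NF-κB and AP-1 sites, 22 h at 37 °C, compounds 0.05 nM–50 µM, inhibition scaled between agonist-plus-DMSO and reference-inhibitor wells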
- condition: read-out: TLR9 IC50; HEK-Blue cells overexpressing human TLR9, ODN2006 5 nM stimulation, SEAP reporter
pIC50: −log10 of the molar value.
Reported pIC50 values follow for various compounds
measured.endpoint: pIC50

>>> value("COc1cc(-c2[nH]c3cnc(N4CCN(CC5CC5)C[C@H]4C)c(F)c3c2C(C)C)cn2ncnc12")
5.13
>>> value("Cc1cc(-c2[nH]c3cnc(N4CCC(NCC(C)(C)O)CC4)c(F)c3c2C(C)C)cn2ncnc12")
5.22
>>> value("COCCNC1CCN(c2ncc3[nH]c(-c4cc(OC)c5ncnn5c4)c(C(C)C)c3c2F)CC1")
5.40

----------
- system.under.test: human TLR9 (Homo sapiens (Human))
- method: TLR9 inhibition reporter assay (HEK-Blue SEAP)
- condition: read-out: TLR9 IC50; HEK-Blue cells overexpressing human TLR9, ODN2006 5 nM stimulation, SEAP reporter
pIC50: −log10 of the molar value.
Lab note: anything with pIC50 at or over 6 counts as condition met; the rest go in condition not met.

>>> group_label("CCN(C)C1CCC(c2cc3c(C(C)C)c(-c4cc(OC)c5ncnn5c4)[nH]c3cn2)CC1 (stereo not shown) [Example 331]")
"condition not met"
>>> group_label("CCN(C)C1CCC(c2cc3c(C(C)C)c(-c4cc(OC)c5ncnn5c4)[nH]c3cn2)C1 (stereo not shown) [Example 272]")
"condition met"
>>> group_label("COc1cc(-c2[nH]c3cnc(C4CCC(NCC(C)(C)OC)C4)cc3c2C(C)C)cn2ncnc12 (stereo not shown) [Example 179]")
"condition met"
>>> group_label("CNCCN1CCC(c2cc3c(C)c(-c4ccc(OC)c(OC)c4)[nH]c3cn2)CC1")
"condition met"
>>> group_label("COc1cc(-c2[nH]c3cnc(N4CCN(CC(N)=O)CC4)cc3c2C(C)C)cn2ncnc12")
"condition not met"
>>> group_label("CNC1CCN(c2ncc3[nH]c(-c4cc(C)c5ncnn5c4)c(C(C)C)c3c2F)CC1")
"condition not met"
>>> group_label("COc1cc(-c2[nH]c3cnc(C4CCC(NC5CCOC5)CC4)cc3c2C(C)C)cn2ncnc12 (stereo not shown) [Example 317]")
"condition met"
>>> group_label("COc1cc(-c2[nH]c3cnc(C4CCC(NC5COC5)CC4)c(C)c3c2C(C)C)cn2ncnc12 (stereo not shown) [Example 242]")
"condition met"
>>> group_label("Cc1c(N2CCC(N3CCN(S(C)(=O)=O)CC3)CC2)ncc2[nH]c(-c3cc(C)c4ncnn4c3)c(C(C)C)c12")
"condition not met"
>>> group_label("COc1cc(-c2[nH]c3cnc(C4CCC(NCC(C)(C)C)CC4)cc3c2C(C)C)cn2ncnc12 (stereo not shown) [Example 310]")
"condition met"
>>> group_label("Cc1cc(-c2[nH]c3cnc(C4CCN(C5COC5)CC4)c(F)c3c2C(C)C)cc(C)n1")
"condition not met"
>>> group_label("Cc1c(-c2[nH]c3cnc(N4CCN(CC(=O)N5CCOCC5)CC4)c(F)c3c2C(C)C)cn2ncnc2c1C")
"condition not met"

Measured values drawn from patent US11912703B2 for this set.
